Tested on: RARg:RXRa (NR concentration 270 nM, RXRa partner concentration 90 nM)
Assay: PBM binding z-score (relative to random genomic background probes); higher = stronger binding; sequences stand for … in GC…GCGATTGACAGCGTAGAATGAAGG
Endpoint name: PBM binding z-score
Reply: number alone, nothing else.

(Q) Quick check: PBM binding z-score of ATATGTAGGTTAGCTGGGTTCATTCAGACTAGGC ?
(A) 1.58

(Q) What measured PBM binding z-score goes with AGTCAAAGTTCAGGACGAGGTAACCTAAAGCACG ?
(A) 4.84

(Q) Looking for the measured PBM binding z-score of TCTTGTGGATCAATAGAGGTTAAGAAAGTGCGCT , can you help?
(A) 0.875

(Q) Tell me the measured PBM binding z-score of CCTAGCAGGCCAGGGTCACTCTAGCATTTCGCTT , please.
(A) 2.69

(Q) // lookup PBM binding z-score for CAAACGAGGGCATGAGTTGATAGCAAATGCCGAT
(A) 1.53

(Q) Which measured PBM binding z-score value corresponds to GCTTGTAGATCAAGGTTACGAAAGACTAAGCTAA ?
(A) 0.713

(Q) Which PBM binding z-score value is on record for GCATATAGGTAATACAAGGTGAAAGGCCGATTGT ?
(A) 0.593

(Q) Using the record for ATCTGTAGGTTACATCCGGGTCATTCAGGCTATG , report its PBM binding z-score.
(A) 3.79

(Q) Tell me the measured PBM binding z-score of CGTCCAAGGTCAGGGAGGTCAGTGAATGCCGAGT , please.
(A) 6.54

(Q) If you can, please state the reported PBM binding z-score value of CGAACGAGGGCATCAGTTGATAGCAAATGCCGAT .
(A) 0.928

(Q) PBM binding z-score for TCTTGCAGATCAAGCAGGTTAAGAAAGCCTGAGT ?
(A) -0.332

(Q) Consider the sequence shown here: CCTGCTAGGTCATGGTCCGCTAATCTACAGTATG What is its recorded PBM binding z-score?
(A) 3.73

(Q) Dear colleague, I am looking for the recorded PBM binding z-score of the following sequence: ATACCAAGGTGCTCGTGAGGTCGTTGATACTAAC
(A) 0.626

(Q) Find the recorded PBM binding z-score belonging to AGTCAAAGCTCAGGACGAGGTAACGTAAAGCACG and report it.
(A) 0.0301

(Q) Would you mind telling me what PBM binding z-score value was observed for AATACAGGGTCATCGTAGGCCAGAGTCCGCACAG ?
(A) 5.73

(Q) State the recorded PBM binding z-score for this entry: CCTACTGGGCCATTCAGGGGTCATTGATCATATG
(A) 4.69

(Q) Given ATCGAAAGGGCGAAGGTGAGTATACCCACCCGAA , state its recorded PBM binding z-score.
(A) 1.63

(Q) PBM binding z-score for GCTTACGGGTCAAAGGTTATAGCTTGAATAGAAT ?
(A) 6.69

(Q) Query: PBM binding z-score; subject: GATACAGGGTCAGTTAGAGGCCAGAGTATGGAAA
(A) 5.99

(Q) Could you tell me which PBM binding z-score is on file for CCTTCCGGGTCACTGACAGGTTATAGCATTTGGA ?
(A) 5.65

(Q) PBM binding z-score lookup needed for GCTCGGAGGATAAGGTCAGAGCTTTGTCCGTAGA , thanks.
(A) 2.92

(Q) For the sequence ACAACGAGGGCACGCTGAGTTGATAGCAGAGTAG , what PBM binding z-score is on record?
(A) 2.12

(Q) If you can, please state the reported PBM binding z-score value of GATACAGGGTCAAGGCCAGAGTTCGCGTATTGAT .
(A) 5.64

(Q) // query PBM binding z-score value for entry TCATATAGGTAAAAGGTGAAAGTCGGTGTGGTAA
(A) 2.24

(Q) # lookup: PBM binding z-score of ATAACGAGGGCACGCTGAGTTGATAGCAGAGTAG
(A) 1.72

(Q) Give its PBM binding z-score value. Item: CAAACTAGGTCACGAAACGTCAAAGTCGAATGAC
(A) 4.59
